Tested on: SK-MEL-5 melanoma
measurement description: NCI-60 one-dose screen, 48 h (100 = growth as untreated, 0 = no growth, -100 = all killed)
condition parameters: 10 µM unless noted
About 83,000 compounds went through this panel and 20% of them were active in at least one assay; those are over-represented in the sample as a whole.
Classify as follows. Reported growth greater than or equal to 60%: YES. Reported growth below: NO.

Example cases with answers are listed next.
S=C(Nc1ccccc1)Nc1ccc(OCc2nc3ccccc3[nH]2)cc1: NO
Cc1cccc(-c2nc(Nc3cccc(S(N)(=O)=O)c3)c3ccccc3n2)c1: NO

[Q] # check: growth of N#Cc1c(-c2ccccc2Cl)cc(-c2ccc3ccccc3c2)[nH]c1=O is greater than or equal to 60%
[A] YES

[Q] # check: growth of COc1ccc(/C=N/NC(=O)Cn2nc(Cc3ccc(OC)cc3)c3onc(C)c3c2=O)cc1 is greater than or equal to 60%
[A] YES

----------
Tested on: NCI-H226 lung
measurement description: NCI-60 one-dose screen, 48 h (100 = growth as untreated, 0 = no growth, -100 = all killed)
condition parameters: 10 µM unless noted
The panel holds about 83,000 compounds, 20% with a hit somewhere; the sample as a whole holds those more often.
Classify as follows. Reported growth greater than or equal to 40%: Condition met. Reported growth below: Condition not met.

Clc1cccc(-c2ccc(OCCCN3CCN(c4ccncc4)CC3)cc2)c1: Condition met

[Q] # check: growth of C=C1CCC2C3(C)COC(c4ccccc4F)OC3CCC2(C)C1CC(O)C1=CCOC1=O (stereo unspecified) is greater than or equal to 40%
[A] Condition met

[Q] # check: growth of CN(C)c1nc(NCCNS(=O)(=O)c2ccc(C3=Nc4c(N)nc(N)nc4NC(c4ccc(Cl)cc4)C3)cc2)nc(Nc2ccc(F)cc2)n1 (stereo unspecified) is greater than or equal to 40%
[A] Condition met

[Q] # check: growth of O=C(COc1ccc(NC(=O)Nc2ccc(Cl)c(Cl)c2)cc1)N=Nc1c(O)[nH]c2ccc(Cl)cc12 is greater than or equal to 40%
[A] Condition not met

[Q] # check: growth of Cc1cccc(NC(=O)CN2CCN(c3ncnc4c3cnn4-c3ccccc3)CC2)c1 is greater than or equal to 40%
[A] Condition met

[Q] # check: growth of COc1ccc(/C=N/NC(=O)Cn2nc(Cc3ccc(OC)cc3)c3onc(C)c3c2=O)cc1 is greater than or equal to 40%
[A] Condition met

[Q] # check: growth of O=c1oc2ccccc2cc1-c1csc(N=Nc2c(O)[nH]c3ccc(Cl)cc23)n1 is greater than or equal to 40%
[A] Condition met

----------
System: MDA-MB-468 breast
measurement description: NCI-60 one-dose screen, 48 h
condition parameters: 10 µM unless noted
About 83,000 compounds went through this panel and 20% of them were active in at least one assay; those are over-represented in the sample as a whole. Active and inactive are the calls of the source. Rule for the calls: active = growth percent below 10; inactive = the rest.
Would you mind answering with one of these outcomes? 1 (yes) (active), 0 (no) (inactive)

Example cases with answers are listed next.
CC(=O)OC[C@@]1(C)C2CC[C@]3(C)C(CC=C4C5CC(C)(C)CC[C@]5(C(=O)Nc5ccc(Br)cc5)CC[C@]43C)[C@@]2(C)C[C@@H](OC(C)=O)[C@@H]1OC(C)=O (some centres not stated): 1 (yes)
O=C(NN1C(=O)/C(=C/C=C/c2ccc([N+](=O)[O-])o2)SC1=S)c1ccc(Cl)cc1: 1 (yes)
COc1ccc(C(=O)/C=C/c2ccc3ccccc3c2)cc1S(N)(=O)=O: 1 (yes)
CCN(CC)CCOc1ccc(Nc2ncc3cc(-c4ccc(O)c(C#N)c4)c(=O)n(C)c3n2)cc1: 0 (no)
CCN(CC)c1ccnc(CNCCSC(c2ccccc2)(c2ccccc2)c2ccc(C)cc2)c1: 1 (yes)
Cc1cc2c(cc1Cl)C(=O)/C(=C/c1ccc(F)cc1)O2: 0 (no)

[Q] Tell me the assay call for O=C(CN1C(=O)/C(=C/c2ccccc2Cl)SC1=S)N1CCOCC1 please.
[A] 1 (yes)

[Q] Tell me the assay call for N#Cc1c(-c2ccccc2Cl)cc(-c2ccc3ccccc3c2)[nH]c1=O please.
[A] 1 (yes)

[Q] Tell me the assay call for Nc1nc(-c2ccccc2)c(N=Nc2ccc([N+](=O)[O-])cc2Cl)s1 please.
[A] 0 (no)

[Q] Tell me the assay call for CN1CCN(c2ccc3c(c2)nc(NNC(=O)c2ncccn2)c2cccn23)CC1 please.
[A] 1 (yes)

[Q] Tell me the assay call for Brc1ccc(-c2n(Cc3ccc4ccccc4c3)c(-c3ccccc3)c(-c3ccccc3)[n+]2Cc2ccc3ccccc3c2)cc1 please.
[A] 1 (yes)

----------
Tested on: SR leukemia
measurement description: NCI-60 one-dose screen, 48 h (100 = growth as untreated, 0 = no growth, -100 = all killed)
condition parameters: 10 µM unless noted
This is part of a sample that, as a whole, favours compounds with a hit. Of some 83,000 tested, about 20% had one in any assay.
Please use y for growth under 30% and n for everything else, ties included.

COc1cc(-c2nc3ccc(C)cc3[nH]2)ccc1OCc1nnc(-c2ccc(Br)cc2)o1: y
N#Cc1cnn(C(=O)c2ccccc2Br)c1NC(=O)c1ccc(Br)cc1Cl: n

[Q] Regarding O=C(CN1C(=O)/C(=C/c2ccccc2F)SC1=S)N1CCOCC1 , kindly confirm whether its growth is beneath 30%.
[A] y

[Q] Regarding CC1CCCCN1CCCNC(=O)N/C(N)=N/c1nc2ccccc2s1 (stereo unspecified) , kindly confirm whether its growth is beneath 30%.
[A] y

----------
Tested on: SNB-19 CNS
measurement description: NCI-60 one-dose screen, 48 h (100 = growth as untreated, 0 = no growth, -100 = all killed)
condition parameters: 10 µM unless noted
Compounds without any hit were thinned out: in the full panel of roughly 83,000, 20% have a hit.
observable: growth (%)
Give the value, in units of %, as a plain number.

Below, each entry is followed by its recorded growth result.
CN(C)CCn1c2ccccc2c2nc3cc4ccccc4cc3nc21: 28.9
COc1ccc(-c2nc3cc(C)ccc3n2CC(=O)N=Nc2c(O)[nH]c3ccc(Br)cc23)cc1: 29.2
Cn1cc(-c2nc(N)nnc2-c2c[nH]c3ccc(F)cc23)c2cc(Br)cnc21: 22.9

Okay, next one:
[Q] // returns reported growth for input C=Cn1cc(C(=O)O)c(=O)c2cc(F)c(N3CCN(c4nccc(-c5nccs5)n4)CC3)cc21
[A] -0.431

----------
Measured growth, listed per entry.
Tested on: HOP-92 NSCLC
measurement description: NCI-60 one-dose screen, 48 h (100 = growth as untreated, 0 = no growth, -100 = all killed)
condition parameters: 10 µM unless noted
Compounds without any hit were thinned out: in the full panel of roughly 83,000, 20% have a hit.
Give the value, in units of %, as a plain number.

Below, each entry is followed by its recorded growth result.
COc1ccc(C(=O)/C=C/c2cccc(Cl)c2)cc1S(N)(=O)=O: 85.8
Cn1cc(-c2nnc(N)nc2-c2c[nH]c3ccc(Br)cc23)c2cc(Br)cnc21: 43.4
Cc1cc(N=C2NC(=O)CS2)n[nH]1: 115
COc1ccc(C(=O)/C=C/c2ccc3ccccc3c2)cc1S(N)(=O)=O: 24.9

[Q] // returns reported growth for input CCC(C)(C)c1ccc(OCCCCN2CCN(c3ccncc3)CC2)cc1
[A] 3.82

[Q] // returns reported growth for input C=C1CC[C@@H]2[C@]3(C)COC(c4ccccc4)O[C@@H]3CC[C@@]2(C)[C@@H]1C/C=C1/C(=O)OCC1OC(C)=O (stereo partly drawn)
[A] -36.3

[Q] // returns reported growth for input COc1cc2c(c(OC)c1OC)C(=O)CC(c1cccc(NC(=O)c3cc(NC(=O)[C@H](CO)NC(=O)OC(C)(C)C)ccc3Cl)c1)O2 (stereo partly drawn)
[A] 39.7

[Q] // returns reported growth for input Cc1ccc([C@H]2C(C(=O)c3ccc(Cl)cc3)C3(N[C@@H]2c2ccccc2)C(=O)Nc2ccccc23)cc1 (stereo partly drawn)
[A] -3.21

----------
Measured growth, listed per entry.
System: HS 578T breast
measurement description: NCI-60 one-dose screen, 48 h (100 = growth as untreated, 0 = no growth, -100 = all killed)
condition parameters: 10 µM unless noted
Protocol: Growth inhibition of the HS 578T human tumor cell line is measured as a screen for anti-cancer activity. Cells are grown in 96 well plates and exposed to the test compound for 48 hours. Compounds are tested at a single concentration, which is 10^-5 M for most compounds. The reported endpoint is percent growth (GI% or GIPRCNT), where numbers from 0 - 100% represent growth inhibition, and numbers from -100% - 0 represent cell death. For example, a value of 40 represents 60% growth inhibition. […]
About 83,000 compounds went through this panel and 20% of them were active in at least one assay; those are over-represented in the sample as a whole. Calls of active or inactive are those of the source. Rule for the calls: active = growth percent below 10; inactive = the rest.

Cn1cc(-c2nc(N)nnc2-c2c[nH]c3ccc(Br)cc23)c2cc(Br)cnc21: 30.2% (inactive)
COc1ccc(C(=O)/C=C/c2cccnc2)cc1S(N)(=O)=O: 89.9% (inactive)
C=C1CC[C@@H]2[C@]3(C)COC(c4cn[nH]c4-c4ccc(F)cc4)O[C@@H]3CC[C@@]2(C)[C@@H]1C/C=C1/C(=O)OCC1O (some centres undefined): 44.8% (inactive)

Okay, next one:
[Q] // returns reported growth for input CCC(C)(C)c1ccc(OCCCCCCN2CCN(c3ccncc3)CC2)cc1
[A] -7.9% (active)
